Reference source: ChEMBL document CHEMBL1201862

// reported GI50 per item
Tested on: T47D
Test: NCI tumour cell line growth inhibition, 48 h
Calls of active or inactive are those of the source. Rule as the data show it: active = GI50 up to about 1.1 µM and inactive = higher.
Measure: GI50

Compound | Tested system | Val
O=C1N/C(=N/N=C\C(O)C(O)C(O)C(O)CO)N/C1=C\c1ccc(Cl)cc1 (stereo unspecified) | T47D | 3.25 µM (inactive)
O=[N+]([O-])c1ccc(/C=N/n2c(S)nnc2CCc2nnc(S)n2/N=C/c2ccc([N+](=O)[O-])o2)o1 | T47D | 23.1 µM (inactive)
CC1OC2=N[C@@H]1C(=O)N[C@@H](Cc1ccccc1)C1=N[C@H](C(=O)N[C@@H](Cc3ccccc3)C3=N[C@H](C(=O)N[C@H]2Cc2ccccc2)C(C)O3)C(C)O1 (stereo partly specified) | T47D | 31.1 µM (inactive)
N=C(N)NCCCC(=O)O | T47D | > 100 µM (inactive)
Nc1ccc(C(=O)NN2C(=O)[C@H](Cl)C2c2ccc(Cl)cc2)cc1 (stereo partly specified) | T47D | 1.85 µM (inactive)
Cc1ccc(C(=O)NCc2ccccc2)cc1/N=N/N(C)C | T47D | 39.7 µM (inactive)
Cc1cnc(NCCCN(C)C)c2c1[nH]c1ccc3cc(O)ccc3c12 | T47D | 0.485 µM (active)
Cc1oc2c(c1C)S(=O)(=O)C(C#N)=C(c1ccccc1)N2 | T47D | > 100 µM (inactive)
COC(=O)C1CC=C(SC(=O)c2ccccc2)N1C(=O)c1ccccc1 (stereo unspecified) | T47D | > 100 µM (inactive)
CCOC(=O)Cc1cc(=O)[nH]c(-n2[nH]c(C)c(CCO)c2=O)n1 | T47D | > 100 µM (inactive)
O=C(CCc1ccccc1)On1c(-c2ccccc2)nc2ccccc2c1=S | T47D | 6.79 µM (inactive)
COc1ccc(/N=N/C(=O)NC(CC(C)C)C(=O)NC(Cc2ccccc2)C(=O)O)cc1 (stereo unspecified) | T47D | 1.06 µM (active)
c1ccc(/N=C2\S/C(=N\C3CCCCC3)N(C3CCCCC3)\C2=N/c2ccccc2)cc1 | T47D | > 100 µM (inactive)
CNc1ccc(Cl)cc1S(=O)(=O)c1ccccc1[N+](=O)[O-] | T47D | > 100 µM (inactive)
CCOC(=O)/C=C(/C(=O)OCC)n1c(=O)c(C)cn(C2CC(N=[N+]=[N-])C(CO)O2)c1=O (stereo unspecified) | T47D | 27.2 µM (inactive)
O=C1CSC(c2c(O)ccc3ccccc23)N1n1c(S)nnc(/C=C/c2c(O)ccc3ccccc23)c1=O (stereo unspecified) | T47D | 0.59 µM (active)
CC(N/N=N/c1ccc(-c2nc3ccccc3[nH]2)cc1)C(=O)O (stereo unspecified) | T47D | 16.3 µM (inactive)
CC1(C)C(=O)c2ccccc2OC1N1CCN(C2Oc3ccccc3C(=O)C2(C)C)CC1 (stereo unspecified) | T47D | 83.4 µM (inactive)
c1ccc2nn(C3CCCO3)nc2c1 (stereo unspecified) | T47D | > 100 µM (inactive)
Cc1nnc(S(=O)(=O)c2ccc(/N=N/c3c(N)nc(N)nc3N)cc2)s1 | T47D | > 100 µM (inactive)
CCOC(=O)c1ccc(N(C)Cc2cnc3nc(N)nc(N)c3n2)cc1 | T47D | 26.9 µM (inactive)
C=CCOC1=C(OCC=C)C(C2COC(C)(C)O2)OC1=O (stereo unspecified) | T47D | > 100 µM (inactive)
OC1(c2ccccc2)C2CCN(CC2)C1CN1CCOCC1 (stereo unspecified) | T47D | > 100 µM (inactive)
CSCCCS/C1=C/CCCCCCCCCC1 | T47D | > 100 µM (inactive)
CC1(C)CCC(C)(C)c2c1ccc(O)c2Cc1c(O)ccc2c1C(C)(C)CCC2(C)C | T47D | 1.87 µM (inactive)
CCCCCCCCCC/C=C/CC(=O)SCCNC(=O)CCNC(=O)[C@@H](O)C(C)(C)COP(=O)(O)OP(=O)(O)OCC1OC(n2cnc3c(N)ncnc32)C(O)C1OP(=O)(O)O (stereo partly specified) | T47D | > 10 µM (inactive)
C[n+]1c(Cl)cn2c3nc4ccccc4nc3c([O-])c(C#N)c21 | T47D | 41.7 µM (inactive)
COC(=O)c1cc(-c2ccc(-c3ccc(O)cc3)cc2)cc(-c2ccc(-c3ccc(O)cc3)cc2)c1 | T47D | 4.61 µM (inactive)
COc1ccc(/N=N/C(=O)NC(Cc2ccccc2)C(=O)O)cc1 (stereo unspecified) | T47D | > 100 µM (inactive)
COc1ccccc1C1SCC(=O)N1c1ccc(-n2c(-c3ccccc3)nc3ccccc3c2=O)cc1 (stereo unspecified) | T47D | 12.9 µM (inactive)
CCCCCCc1cc2cc(-c3cn4ccsc4n3)c(=O)oc2cc1O | T47D | > 100 µM (inactive)
